Source of measurements: PubChem BioAssay (NCI)

Reported GI50 values for a set of molecules
test system: NCI-H226 lung; experiment: NCI tumour cell line growth inhibition, 48 h
READOUT KIND: GI50

molecule=CC1(C)N=C(N)N=C(N)N1c1ccc(CCC(=O)Nc2ccc(S(=O)(=O)F)cc2)c(Cl)c1 value="14.4 µM"
molecule=CCC[CH2][Sn]([CH2]CCC)([O]C(=O)CN)[O]C(=O)CN value="> 100 µM"
molecule=Cn1c(Cl)c(/C=C2/C(=O)Nc3ccccc32)c2ccccc21 value="1.83 µM"
molecule=Cc1cc(Cl)ccc1OCC(=O)Nc1nc2c(Cl)cccc2s1 value="53.3 µM"
molecule=COc1cc(Nc2ncccc2C(=O)Nc2nc3ccc(F)cc3s2)cc(OC)c1OC value="2.95 µM"
molecule=O=C(Oc1ccc[nH]c1=O)c1cc([N+](=O)[O-])cc([N+](=O)[O-])c1 value="> 100 µM"
molecule=COC(=O)c1ccc2[nH]c(O)c(C(=Nc3ccc(N(C)C(=O)CN4CCN(C)CC4)cc3)c3ccc4c(c3)OCO4)c2c1 value="0.616 µM"
molecule=N/N=C\c1c2ccccc2c(=O)n2c1oc1ccccc12 value="14.6 µM"
molecule=CCCCCCCCn1ccc2cc(NC(=O)Cn3cc(CN4CCCCCC4)nn3)ccc21 value="2.23 µM"

====

tested on: HCT-15 colon; test: NCI tumour cell line growth inhibition, 48 h
READOUT KIND: TGI

compound=CC(C)CNc1nc(-c2ccccc2Cl)nc2ccccc12 readout_kind=TGI value="32.1 µM"
compound=O=C(CSc1nnc(-c2ccccn2)s1)N/N=C/c1ccccc1 readout_kind=TGI value="> 100 µM"
compound=Cc1cn(-c2cc(NC(=O)c3cccc(C#Cc4cccc5[nH]nc(N)c45)c3)cc(C(F)(F)F)c2)cn1 readout_kind=TGI value="> 100 µM"
compound=NC(=Nc1ccccc1Cl)c1ccccc1N readout_kind=TGI value="> 100 µM"
compound="O=C(O)CCC1CCc2cccc(O)c2C1=O (stereo unspecified)" readout_kind=TGI value="> 100 µM"
compound="CC1=C2C(O)C(C(C)C(=O)N(C)C)CCC2(C)C=CC1=O (stereo unspecified)" readout_kind=TGI value="> 100 µM"
compound=N/N=C\c1c2ccccc2c(=O)n2c1oc1ccccc12 readout_kind=TGI value="34.6 µM"
compound=Nc1ccccc1CCN1CCN(CCCc2ccccc2)CC1 readout_kind=TGI value="> 100 µM"
compound=Cc1ccc2c(ccc(/C=C/c3ccc(O)c4ncccc34)[n+]2C)c1 readout_kind=TGI value="> 100 µM"
compound=Cc1nc2ccc(Br)cc2c(=O)n1-c1nnc(C(C)(C)C)s1 readout_kind=TGI value="> 10 µM"
compound="O=C(NN1C(=O)C(Cl)C1c1ccc(Cl)cc1)c1c(Cl)c(Cl)c(Cl)c(Cl)c1-c1nc2ccccc2[nH]1 (stereo unspecified)" readout_kind=TGI value="54.4 µM"

====

system: SK-MEL-5 melanoma; experiment: NCI tumour cell line growth inhibition, 48 h
Reported log10(TGI) values for a set of compounds
READOUT KIND: log10(TGI) (log10 of the value in µM)

compound=CCOC(=O)Nc1cc2c(c(N)n1)N=C(c1ccc(OC)cc1)CN2 readout_kind=log10(TGI) value=-0.85
compound=O=C1/C(=C\c2ccc([N+](=O)[O-])cc2)N(S(=O)(=O)c2ccccc2)c2ncccc21 readout_kind=log10(TGI) value=1.50
compound=CNC(=O)OCc1c(COC(=O)NC)c(-c2ccc(-c3ccccc3)cc2)n(C)c1C readout_kind=log10(TGI) value=1.15
compound=Nc1ccccc1CCN1CCN(CCCc2ccccc2)CC1 readout_kind=log10(TGI) value=1.51
compound=CN(C)Cc1cc(C(F)(F)F)ccc1C(O)(c1ccccc1)c1ccccc1 readout_kind=log10(TGI) value=1.44
compound="O=S(Cc1ccccc1)c1nc2ccccc2nc1-c1cccs1 (stereo not given)" readout_kind=log10(TGI) value=1.37
compound=Cc1ccc(C(=O)N/N=C(\N=Nc2cccc([N+](=O)[O-])c2)c2ccc(N(CCC#N)CCC#N)cc2C)cc1 readout_kind=log10(TGI) value=1.46

====

tested on: SF-295 CNS; assay: NCI tumour cell line growth inhibition, 48 h; in the data active = GI50 below about 0.43 µM; inactive = the rest
Labels: True for active, False for inactive

compound=O=c1[nH]c2ccccc2cc1-c1nc2ccc(Cl)cc2[nH]1 class_label=False
compound=CCN1C(=O)c2ccc3c4c(ccc(c24)C1=O)C(=O)N(CCCNCc1ccccc1OC)C3=O class_label=True
compound=CN(C)C/C=C/C(=O)Nc1ccc(C(=O)N[C@@]2(C)CCC[C@@H](Nc3ncc(Cl)c(-c4c[nH]c5ccccc45)n3)C2)nc1 class_label=True
compound="COc1ccc2c(c1)NC1=C(C(=O)OC1)C2c1cc(OC)c(OC)c(OC)c1 (configuration not stated)" class_label=True
compound=O=C(O)c1ccc(CN2CCC(CN[C@@H]3C[C@H]3c3ccccc3)CC2)cc1 class_label=False
compound=N/N=C\c1c2ccccc2c(=O)n2c1oc1ccccc12 class_label=False
compound=CCOc1cc(C(C)(C)C)ccc1C1=N[C@H](c2ccc(Cl)cc2)[C@H](c2ccc(Cl)cc2)N1C(=O)N1CCN(CC#Cc2cccc3c2CN([C@@H]2CCC(=O)NC2=O)C3=O)CC1 class_label=False

====

system: UACC-257 melanoma; experiment: NCI tumour cell line growth inhibition, 48 h
Reported TGI values for a set of compounds
READOUT KIND: TGI

compound=O=NNc1ccc2ccccc2n1 readout_kind=TGI value="> 100 µM"
compound="COc1ccc2c(c1)NC1=C(C(=O)OC1)C2c1cc(OC)c(OC)c(OC)c1 (stereo not given)" readout_kind=TGI value="> 100 µM"
compound="CCOC1C(Br)Cn2c(=O)c3cc4ccccc4cc3c(=O)n2C1C (stereo not given)" readout_kind=TGI value="> 100 µM"
compound=O=C1NC(=S)S/C1=C/c1ccc2c(c1)OCO2 readout_kind=TGI value="> 100 µM"
compound="CC1C2CC(C(S(=O)(=O)O)C2=O)C1(C)C (stereo not given)" readout_kind=TGI value="> 100 µM"
compound=N#C/C(=C/c1cccc(Oc2ccccc2)c1)c1ccccc1 readout_kind=TGI value="> 100 µM"
compound=CCCCCCCCCCCC(=O)OCCOCCOCCOCCOCCOC(=O)CCCCCCCCCCC readout_kind=TGI value="> 100 µM"
compound=Cc1ccc(S(=O)(=O)OC2CC=CC2)cc1 readout_kind=TGI value="> 100 µM"
compound=CN(C)C/C=C/C(=O)Nc1ccc(C(=O)N[C@@]2(C)CCC[C@@H](Nc3ncc(Cl)c(-c4c[nH]c5ccccc45)n3)C2)nc1 readout_kind=TGI value="0.121 µM"
compound=O=C(O)CO[C@@]12C#C/C=C\C#C[C@@H]3N(C(=O)Oc4ccccc4)c4ccccc4[C@]14O[C@@]34CCC2 readout_kind=TGI value="> 100 µM"

====

Reported TGI values for a set of compounds
test system: SW-620 colon; test: NCI tumour cell line growth inhibition, 48 h
READOUT KIND: TGI

compound=C/C(=N\NS(=O)(=O)c1ccc(C)cc1)c1ccccn1 subject_of_test="SW-620 colon" value="> 100 µM"
compound=O=NNc1ccc2ccccc2n1 subject_of_test="SW-620 colon" value="> 100 µM"
compound=CCN1C(=O)/C(=C/c2c(Cl)[nH]c3cc(C)c(OC)cc23)c2ccccc21 subject_of_test="SW-620 colon" value="> 100 µM"
compound=COc1ccc([C@@]2(O)c3c(ccc(O)c3OC)[C@H]2OC)c(OC)c1 subject_of_test="SW-620 colon" value="> 100 µM"
compound=C=CC[C@]1(/C=N/O)CN(S(=O)(=O)CC[Si](C)(C)C)C[C@H]2CC=CC[C@H]21 subject_of_test="SW-620 colon" value="34.7 µM"
compound=CC1(C)N=C(N)N=C(N)N1c1ccc(CCC(=O)Nc2ccc(S(=O)(=O)F)cc2)c(Cl)c1 subject_of_test="SW-620 colon" value="> 100 µM"
compound=CCN1C(=O)c2ccc3c4c(ccc(c24)C1=O)C(=O)N(CCCNCc1ccccc1OC)C3=O subject_of_test="SW-620 colon" value="1.77 µM"
compound="C=C1c2c(C)nn(-c3ccc(C#CCOC4OC(CO)C(O)C(O)C4O)cc3)c2N(C)C23C[C@H]1C1(C)c4c(C)nn(-c5ccc(C#CCOC6OC(CO)C(O)C(O)C6O)cc5)c4N(C)C(C)(C[C@H]12)C3 (stereo not given in full)" subject_of_test="SW-620 colon" value="3.77 µM"
compound=COc1ccc(C=O)cc1O[Si](C)(C)C(C)(C)C subject_of_test="SW-620 colon" value="> 100 µM"
compound=CCCCCCCCCC[C@@H](OC(C)=O)[C@@H]1CC[C@@H]([C@@H]2CC[C@@H]([C@@H](O)CC#C/C=C/CCCCCCC[C@@]3(Sc4ccccc4)C[C@H](C)OC3=O)O2)O1 subject_of_test="SW-620 colon" value="> 10 µM"
compound="COc1ccc(CC2COc3cc(OC)cc(OC)c3C2=O)cc1 (stereo not given)" subject_of_test="SW-620 colon" value="> 100 µM"
compound="C=C(C)C1CCC(C(=O)O)CC1 (stereo not given)" subject_of_test="SW-620 colon" value="> 100 µM"
compound=N/N=C\c1c2ccccc2c(=O)n2c1oc1ccccc12 subject_of_test="SW-620 colon" value="32.5 µM"
compound=CCC[CH2][Sn]([CH2]CCC)([O]C(=O)CN)[O]C(=O)CN subject_of_test="SW-620 colon" value="37 µM"
compound=COc1cc(NCC(C#N)C#N)ccc1N=Nc1ccc(Cl)cc1 subject_of_test="SW-620 colon" value="41.9 µM"
compound="O=C(O)c1c2c(cc3c1CC(Cc1ccccc1)C3=O)CCC2 (stereo not given)" subject_of_test="SW-620 colon" value="> 100 µM"
compound=C[C@]12CCc3sc(Nc4ccc(OC(F)(F)F)cc4)nc3C1=CC[C@@H]1[C@@H]2CC[C@]2(C)C(=O)CC[C@@H]12 subject_of_test="SW-620 colon" value="5 µM"
compound="COC(=O)C1Cc2cc3c(cc2C1=O)CCC3 (stereo not given)" subject_of_test="SW-620 colon" value="> 100 µM"
compound=O=C1N/C(=C\[N+](=O)[O-])c2ccccc21 subject_of_test="SW-620 colon" value="> 100 µM"
compound=O=C(O)c1ccc(CN2CCC(CN[C@@H]3C[C@H]3c3ccccc3)CC2)cc1 subject_of_test="SW-620 colon" value="> 100 µM"
